FYI, the data here is from ChEMBL document CHEMBL3885861.

Species: Rattus norvegicus
Experiment: Open TG-GATES - Regimen: Single
Format: toxicity, organism-based, Sprague-Dawley
Set-up: regimen Single, gender Male, age 6 weeks
Conditions: in vivo, po, 100 mg/kg, 6 h, tissue Blood, route gavage, dose level Low
Provide the reported Fbg of each item.
Numbers only, in mg/dL.

compound=COC(=O)C1=C(C)NC(C)=C(C(=O)OC)C1c1ccccc1[N+](=O)[O-] unitofmeasure=mg/dL assayresult=278.2
compound=Cc1nnc2n1-c1ccc(Cl)cc1C(c1ccccc1Cl)=NC2 unitofmeasure=mg/dL assayresult=284
compound=CN/C(=N/CCSCc1nc[nH]c1C)NC#N unitofmeasure=mg/dL assayresult=216.8
compound=CNC(=C[N+](=O)[O-])NCCSCc1ccc(CN(C)C)o1 unitofmeasure=mg/dL assayresult=229.6

Here is the next item to consider.
(Q) Tell me its Fbg given O=C(OC[C@H]1O[C@@H](OC(=O)c2cc(O)c(O)c(OC(=O)c3cc(O)c(O)c(O)c3)c2)[C@H](OC(=O)c2cc(O)c(O)c(OC(=O)c3cc(O)c(O)c(O)c3)c2)[C@@H](OC(=O)c2cc(O)c(O)c(OC(=O)c3cc(O)c(O)c(O)c3)c2)[C@@H]1OC(=O)c1cc(O)c(O)c(OC(=O)c2cc(O)c(O)c(O)c2)c1)c1cc(O)c(O)c(OC(=O)c2cc(O)c(O)c(O)c2)c1 as the entry.
(A) 212.6

###

Species on record: Rattus norvegicus
Experiment: Open TG-GATES - Regimen: Daily Repeat
Format: toxicity, organism-based, Sprague-Dawley
Set-up: regimen Daily Repeat, gender Male, age 6 weeks
Conditions: in vivo, po, 100 mg/kg, […], tissue Plasma, route gavage, dose level Low, time 7 day
Provide the reported AST of each item.
Give bare numbers, in IU/L.

compound=COC(=O)C1=C(C)NC(C)=C(C(=O)OC)C1c1ccccc1[N+](=O)[O-] assayresult=67.4

Your task in this section: give AST for each listed record.
1. CN/C(=N/CCSCc1nc[nH]c1C)NC#N
2. Cc1nnc2n1-c1ccc(Cl)cc1C(c1ccccc1Cl)=NC2
3. O=C(OC[C@H]1O[C@@H](OC(=O)c2cc(O)c(O)c(OC(=O)c3cc(O)c(O)c(O)c3)c2)[C@H](OC(=O)c2cc(O)c(O)c(OC(=O)c3cc(O)c(O)c(O)c3)c2)[C@@H](OC(=O)c2cc(O)c(O)c(OC(=O)c3cc(O)c(O)c(O)c3)c2)[C@@H]1OC(=O)c1cc(O)c(O)c(OC(=O)c2cc(O)c(O)c(O)c2)c1)c1cc(O)c(O)c(OC(=O)c2cc(O)c(O)c(O)c2)c1
4. CNC(=C[N+](=O)[O-])NCCSCc1ccc(CN(C)C)o1

(A)
64.2
75.6
62.6
61.2

###

Species: Rattus norvegicus
Experiment: Open TG-GATES - Regimen: Daily Repeat
Type: toxicity, organism-based, Sprague-Dawley
Parameters: regimen Daily Repeat, gender Male, age 6 weeks
Settings: in vivo, po, 300 mg/kg, […], tissue Plasma, route gavage, dose level Middle, time 7 day
measurementType: DBIL
Write the numeric value and append its unit.

Example molecules with recorded DBIL:
compound=O=C(OC[C@H]1O[C@@H](OC(=O)c2cc(O)c(O)c(OC(=O)c3cc(O)c(O)c(O)c3)c2)[C@H](OC(=O)c2cc(O)c(O)c(OC(=O)c3cc(O)c(O)c(O)c3)c2)[C@@H](OC(=O)c2cc(O)c(O)c(OC(=O)c3cc(O)c(O)c(O)c3)c2)[C@@H]1OC(=O)c1cc(O)c(O)c(OC(=O)c2cc(O)c(O)c(O)c2)c1)c1cc(O)c(O)c(OC(=O)c2cc(O)c(O)c(O)c2)c1 measurementtype=DBIL assayresult="0.016 mg/dL"
compound=CNC(=C[N+](=O)[O-])NCCSCc1ccc(CN(C)C)o1 measurementtype=DBIL assayresult="0.084 mg/dL"
compound=Cc1nnc2n1-c1ccc(Cl)cc1C(c1ccccc1Cl)=NC2 measurementtype=DBIL assayresult="0.012 mg/dL"
compound=CCOc1ccc(NC(C)=O)cc1 measurementtype=DBIL assayresult="0.008 mg/dL"
compound=CN/C(=N/CCSCc1nc[nH]c1C)NC#N measurementtype=DBIL assayresult="0.094 mg/dL"

Here is the next item to consider.
(Q) Tell me its DBIL given COC(=O)C1=C(C)NC(C)=C(C(=O)OC)C1c1ccccc1[N+](=O)[O-] as the entry.
(A) 0.012 mg/dL
